Tested on: PPARg DBDmut:RXRa IVT, anti-PPARg (DBD mutation: PPARg1 K132A/R137A, NR concentration 270 nM, RXRa partner concentration 90 nM)
Test: PBM binding z-score (relative to random genomic background probes); higher = stronger binding; sequences stand for … in GC…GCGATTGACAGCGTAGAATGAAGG
Mark criterion not met for PBM binding z-score values under -0.4, and criterion met for everything at or above.

-- ask Has `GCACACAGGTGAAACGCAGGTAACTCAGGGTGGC` a recorded PBM binding z-score greater than or equal to -0.4?
-- reply criterion met

-- ask Has `ATCGAAAGGTCGACGAGGTGAGGATACACCGTTT` a recorded PBM binding z-score greater than or equal to -0.4?
-- reply criterion met

-- ask Has `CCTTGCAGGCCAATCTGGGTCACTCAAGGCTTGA` a recorded PBM binding z-score greater than or equal to -0.4?
-- reply criterion met

-- ask Has `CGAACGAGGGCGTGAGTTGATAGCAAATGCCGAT` a recorded PBM binding z-score greater than or equal to -0.4?
-- reply criterion not met

-- ask Has `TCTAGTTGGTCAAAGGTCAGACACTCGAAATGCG` a recorded PBM binding z-score greater than or equal to -0.4?
-- reply criterion met

-- ask Has `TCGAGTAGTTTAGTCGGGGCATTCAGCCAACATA` a recorded PBM binding z-score greater than or equal to -0.4?
-- reply criterion met

-- ask Has `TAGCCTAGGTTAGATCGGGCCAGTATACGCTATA` a recorded PBM binding z-score greater than or equal to -0.4?
-- reply criterion not met

-- ask Has `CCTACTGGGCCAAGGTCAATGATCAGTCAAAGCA` a recorded PBM binding z-score greater than or equal to -0.4?
-- reply criterion not met

-- ask Has `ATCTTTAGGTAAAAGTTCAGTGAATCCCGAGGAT` a recorded PBM binding z-score greater than or equal to -0.4?
-- reply criterion met

-- ask Has `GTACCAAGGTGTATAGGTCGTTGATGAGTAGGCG` a recorded PBM binding z-score greater than or equal to -0.4?
-- reply criterion met

-- ask Has `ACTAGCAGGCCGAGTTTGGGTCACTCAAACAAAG` a recorded PBM binding z-score greater than or equal to -0.4?
-- reply criterion met

-- ask Has `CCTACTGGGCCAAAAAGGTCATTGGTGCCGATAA` a recorded PBM binding z-score greater than or equal to -0.4?
-- reply criterion not met

---

Test system: RARa homodimer (NR concentration 270 nM)
Test: PBM binding z-score (relative to random genomic background probes); higher = stronger binding; sequences stand for … in GC…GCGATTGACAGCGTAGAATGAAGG
READOUT TYPE: PBM binding z-score
Field format: numeric only.

-- ask # lookup: PBM binding z-score of `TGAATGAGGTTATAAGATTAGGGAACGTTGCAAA`
-- reply 0.154

-- ask # lookup: PBM binding z-score of `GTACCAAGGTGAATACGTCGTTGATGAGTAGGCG`
-- reply 0.0524

-- ask # lookup: PBM binding z-score of `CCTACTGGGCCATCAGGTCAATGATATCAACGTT`
-- reply -0.0644

-- ask # lookup: PBM binding z-score of `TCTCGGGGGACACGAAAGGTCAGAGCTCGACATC`
-- reply 2.64

-- ask # lookup: PBM binding z-score of `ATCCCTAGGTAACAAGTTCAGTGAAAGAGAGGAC`
-- reply 0.946

-- ask # lookup: PBM binding z-score of `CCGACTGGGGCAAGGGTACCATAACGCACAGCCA`
-- reply -0.395

-- ask # lookup: PBM binding z-score of `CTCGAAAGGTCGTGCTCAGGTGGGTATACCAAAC`
-- reply 0.327

-- ask # lookup: PBM binding z-score of `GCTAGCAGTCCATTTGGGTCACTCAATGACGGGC`
-- reply -0.831

-- ask # lookup: PBM binding z-score of `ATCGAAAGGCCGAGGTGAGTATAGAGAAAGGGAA`
-- reply -0.273

-- ask # lookup: PBM binding z-score of `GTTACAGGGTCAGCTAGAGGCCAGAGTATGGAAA`
-- reply 0.709

-- ask # lookup: PBM binding z-score of `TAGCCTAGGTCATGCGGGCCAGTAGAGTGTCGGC`
-- reply -0.56

-- ask # lookup: PBM binding z-score of `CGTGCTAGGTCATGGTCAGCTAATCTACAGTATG`
-- reply -0.32

-- ask # lookup: PBM binding z-score of `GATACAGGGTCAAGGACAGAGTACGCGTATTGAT`
-- reply 1.69

-- ask # lookup: PBM binding z-score of `CCTACCGGGCCAAAGGTCATTGATTCCAATGCTC`
-- reply 0.836

-- ask # lookup: PBM binding z-score of `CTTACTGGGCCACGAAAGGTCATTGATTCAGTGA`
-- reply 0.212

-- ask # lookup: PBM binding z-score of `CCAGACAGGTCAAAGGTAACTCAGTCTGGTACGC`
-- reply 0.857

-- ask # lookup: PBM binding z-score of `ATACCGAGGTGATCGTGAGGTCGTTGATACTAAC`
-- reply -0.522

-- ask # lookup: PBM binding z-score of `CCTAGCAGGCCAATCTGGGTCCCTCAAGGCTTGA`
-- reply -0.809

-- ask # lookup: PBM binding z-score of `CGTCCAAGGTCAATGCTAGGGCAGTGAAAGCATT`
-- reply -0.245

-- ask # lookup: PBM binding z-score of `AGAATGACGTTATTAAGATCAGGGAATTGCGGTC`
-- reply -0.0308

-- ask # lookup: PBM binding z-score of `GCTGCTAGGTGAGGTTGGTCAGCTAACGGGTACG`
-- reply -0.904

-- ask # lookup: PBM binding z-score of `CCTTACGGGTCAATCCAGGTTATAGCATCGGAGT`
-- reply 0.489

-- ask # lookup: PBM binding z-score of `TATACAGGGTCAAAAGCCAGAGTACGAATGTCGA`
-- reply 0.877

-- ask # lookup: PBM binding z-score of `AGTCAAAGTTCTGGACGAGGTAACGTAAAGCACG`
-- reply 0.0553

-- ask # lookup: PBM binding z-score of `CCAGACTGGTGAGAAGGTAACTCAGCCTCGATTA`
-- reply -0.0331

-- ask # lookup: PBM binding z-score of `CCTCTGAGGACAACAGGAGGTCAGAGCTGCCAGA`
-- reply 0.218

-- ask # lookup: PBM binding z-score of `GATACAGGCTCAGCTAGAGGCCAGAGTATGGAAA`
-- reply -0.86

-- ask # lookup: PBM binding z-score of `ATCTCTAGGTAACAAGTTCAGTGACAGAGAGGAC`
-- reply 1.47

-- ask # lookup: PBM binding z-score of `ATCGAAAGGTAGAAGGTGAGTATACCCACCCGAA`
-- reply 0.608

-- ask # lookup: PBM binding z-score of `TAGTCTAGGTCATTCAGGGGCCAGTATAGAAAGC`
-- reply 0.639

-- ask # lookup: PBM binding z-score of `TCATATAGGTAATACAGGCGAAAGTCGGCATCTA`
-- reply 0.962

-- ask # lookup: PBM binding z-score of `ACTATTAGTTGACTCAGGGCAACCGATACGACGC`
-- reply 0.791

-- ask # lookup: PBM binding z-score of `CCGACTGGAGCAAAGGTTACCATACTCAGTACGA`
-- reply -0.322

-- ask # lookup: PBM binding z-score of `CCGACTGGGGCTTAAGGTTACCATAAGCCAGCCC`
-- reply -0.504

-- ask # lookup: PBM binding z-score of `GCACGGAGGACAAGGTCAGAGCTTTGTCCGTAGA`
-- reply -0.486

-- ask # lookup: PBM binding z-score of `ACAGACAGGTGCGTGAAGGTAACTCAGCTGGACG`
-- reply -0.862

-- ask # lookup: PBM binding z-score of `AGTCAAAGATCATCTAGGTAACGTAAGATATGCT`
-- reply 0.136

-- ask # lookup: PBM binding z-score of `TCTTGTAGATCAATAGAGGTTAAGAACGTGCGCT`
-- reply 0.544

-- ask # lookup: PBM binding z-score of `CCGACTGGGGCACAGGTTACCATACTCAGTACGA`
-- reply 0.15

-- ask # lookup: PBM binding z-score of `ACTAGCAGGCCAAGTTTGAGTCACTCAAACAAAG`
-- reply -1.17

-- ask # lookup: PBM binding z-score of `ATCTCTAGGTAAAGATAGTTCAGTGGATGCAAAT`
-- reply 1.18

-- ask # lookup: PBM binding z-score of `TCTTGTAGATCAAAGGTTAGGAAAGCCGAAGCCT`
-- reply 0.262

-- ask # lookup: PBM binding z-score of `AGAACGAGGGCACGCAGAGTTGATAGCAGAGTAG`
-- reply -0.379

-- ask # lookup: PBM binding z-score of `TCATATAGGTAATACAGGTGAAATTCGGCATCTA`
-- reply 1.76

-- ask # lookup: PBM binding z-score of `ACAGACAGGTGTGTGAAGGTAACTCAGCTGGACG`
-- reply -0.0972

-- ask # lookup: PBM binding z-score of `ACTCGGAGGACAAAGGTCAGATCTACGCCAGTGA`
-- reply 1.42

-- ask # lookup: PBM binding z-score of `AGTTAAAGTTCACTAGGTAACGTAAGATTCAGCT`
-- reply 1.6

-- ask # lookup: PBM binding z-score of `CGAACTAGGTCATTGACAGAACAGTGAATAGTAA`
-- reply 0.356

-- ask # lookup: PBM binding z-score of `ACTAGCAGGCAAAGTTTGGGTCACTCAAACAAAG`
-- reply -0.701

-- ask # lookup: PBM binding z-score of `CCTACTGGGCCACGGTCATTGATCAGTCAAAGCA`
-- reply -0.863

-- ask # lookup: PBM binding z-score of `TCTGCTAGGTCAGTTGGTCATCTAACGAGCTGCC`
-- reply -0.587
